Each recorded value in this set is attributed to patent US20240417436A1.

// Average EC50, HEK-Blue IL-2R (CD122+, CD132+) reporter assay lookup, one value per entry
biological target: IL-2 receptor βγ complex (CD122/CD132) on HEK-Blue IL-2Rβγ reporter cells (UniProt P14784); assay: cell-based or functional assay
Sequence (P14784 27-551 limits assumed, chain 1 of 2): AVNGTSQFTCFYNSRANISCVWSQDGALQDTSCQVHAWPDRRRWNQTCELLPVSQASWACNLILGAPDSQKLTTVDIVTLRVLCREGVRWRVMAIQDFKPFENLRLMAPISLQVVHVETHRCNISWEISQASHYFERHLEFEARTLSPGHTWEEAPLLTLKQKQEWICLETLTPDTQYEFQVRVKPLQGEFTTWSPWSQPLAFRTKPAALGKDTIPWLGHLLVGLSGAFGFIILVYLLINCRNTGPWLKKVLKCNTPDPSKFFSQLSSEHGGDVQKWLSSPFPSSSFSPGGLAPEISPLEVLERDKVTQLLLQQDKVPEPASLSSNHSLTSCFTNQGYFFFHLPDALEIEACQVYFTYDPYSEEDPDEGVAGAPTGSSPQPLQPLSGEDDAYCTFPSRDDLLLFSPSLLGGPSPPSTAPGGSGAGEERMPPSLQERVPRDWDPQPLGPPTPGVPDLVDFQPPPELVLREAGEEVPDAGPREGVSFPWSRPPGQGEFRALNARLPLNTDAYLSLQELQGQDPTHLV
Sequence (P31785 23-369 limits assumed, chain 2 of 2, further chain): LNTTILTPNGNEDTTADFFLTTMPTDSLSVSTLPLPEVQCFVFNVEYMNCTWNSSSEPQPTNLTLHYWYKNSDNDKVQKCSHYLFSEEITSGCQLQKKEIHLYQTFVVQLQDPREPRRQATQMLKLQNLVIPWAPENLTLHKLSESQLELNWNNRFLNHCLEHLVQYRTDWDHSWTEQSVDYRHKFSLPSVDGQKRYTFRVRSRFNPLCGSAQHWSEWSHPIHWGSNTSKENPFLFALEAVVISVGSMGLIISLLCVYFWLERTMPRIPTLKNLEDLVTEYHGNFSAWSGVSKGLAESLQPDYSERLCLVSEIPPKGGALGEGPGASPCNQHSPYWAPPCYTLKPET
Bridges are numbered along the chain shown (N, C = ends). Primed or numbered codes have the meaning given here. [ ]: non-standard residue; d: D form. Yn3(5) = tyrosine residue modified with an azide-capped PEG9 group (O-(PEG9-azido)-tyrosine); Ygp(5) = O-(8x polyethylene glycol-amino)-tyrosine (Tyr-PEG8-amine); Ygp = O-(8x polyethylene glycol-amino)-tyrosine; Yn3 = O-(9x polyethylene glycol-azido)-tyrosine; 4x polyethylene glycol = not defined here; hSer = N[C@@H](CCO)C(=O)O; Nle = CCCC[C@H](N)C(=O)O
The reply should contain only the number, in pM.

[
  {
    "binder": "CMP-319, MMP2 cleaved molecule (ligand, lactam N-33; also: treated with MMP2 (cleavage site not given here)) RGRRVANLVGAPTSSSTKKTQLQLEHLLLDLQEILNGINNYKNPKLTR[Nle]L[hSer][Yn3(5)]KF[Ygp(5)][Nle]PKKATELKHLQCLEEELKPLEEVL[hSer]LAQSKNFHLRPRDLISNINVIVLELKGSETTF[hSer]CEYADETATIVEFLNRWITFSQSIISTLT",
    "value.unit": "pM",
    "endpoint.result": 49
  }
]

Q: Query (binder): CMP-303 (ligand, linker (positions not given here) via 4x polyethylene glycol; not fully specified (bridges); reading uncertain; also: ring may run through the N-terminus of residue 1, not given here) PLGLAGAPTSSSTKKTQLQLEHLLLDLQEILNGINNYKNPKLTR[Nle]L[hSer][Yn3]KF[Ygp][Nle]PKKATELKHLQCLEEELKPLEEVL[hSer]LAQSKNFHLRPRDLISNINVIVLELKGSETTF[hSer]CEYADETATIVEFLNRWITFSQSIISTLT ; field requested: Average EC50, HEK-Blue IL-2R (CD122+, CD132+) reporter assay
Ans: 521
